Cited source for all entries: patent US8772286B2

test: Solubility determination of MK2 inhibitors (kinetic aqueous solubility, UPLC); type: physicochemical; conditions: aqueous buffer (system solution from pION inc.), 22 °C, pH 7.4, aqueous buffer, kinetic from dmso stock, pH 7.4, room temperature, about 1% DMSO, 24 h shaking; read-out: solubility
Listed here: items and their measured solubility at 24 h.

Check out these entries, answers already filled in.
>  <MOLECULE>
O=C1NCC2(CCNCC2)c2[nH]c(-c3ccnc(-c4ccc(C(F)(F)F)cc4)n3)cc21 [1—17]

>  <solubility at 24 h>
≥ 50 µg/mL

$$$$
>  <MOLECULE>
CN1CCC2(CC1)CNC(=O)c1cc(-c3ccnc(-c4cc5ccccc5o4)n3)[nH]c12 [Example 2—1]

>  <solubility at 24 h>
20 to 50 µg/mL

$$$$

Respond only with solubility at 24 h recorded for O=C1NCC2(CCNC2)c2[nH]c(-c3ccnc(-c4cnc5ccccc5c4)n3)cc21 (stereo not drawn) [Example 6—1]
20 to 50 µg/mL
